The measured values listed here are drawn from ChEMBL document CHEMBL3507680.

// values below are reported cytotoxicity at 70.5 h
# test.details: Human HepG2 cell viability assay in 384 well format
# Assay type: toxicity, cell-based
# Design: dose 125 nL, time 70.5 hour; concentration not given beside the values
# experimental.setup: HepG2 cells, read-out: Inhibition
API: value field is a number in %; no unit string.

Some solved cases for reference:
compound | cytotoxicity at 70.5 h / %
Cn1ccc(C(=O)N2CCCC(Cc3cccc4ncccc34)C2)n1 (configuration not stated) | 35.2
CN(C)c1nc(NCCCN2CCc3ccccc32)ncc1F | 38.5
COc1ccc(OC)c(C(C)Nc2ncnc3c2NC(=O)CN3)c1 (configuration not stated) | -18.2
COCCOc1ncccc1NCc1nc2ccccc2n1C | -15.1
O=C(NCC1OCCc2cn(CC3CCOCC3)nc21)c1ccsc1 (configuration not stated) | 5
COc1ncccc1C(=O)N1CCCC1c1c(C)n[nH]c1C (configuration not stated) | 37.5
COc1ccccc1OCC(=O)NCC(O)(c1ccccc1)C1CC1 (configuration not stated) | -3.14
O=C(COCC(=O)N(c1ccccc1)c1ccccc1)N1CCCCC1 | 19.2
Cc1nc(C)n(CC2CN(Cc3cccc(OC(C)C)c3)CCO2)n1 (configuration not stated) | -10.6
CSc1ccc(NC(=O)NCc2nncn2C2CC2)cc1F | 2.39

Item under review: Cc1ccc(CNCCOc2ccc(S(C)(=O)=O)cc2)cc1 . Reported cytotoxicity at 70.5 h?
11

Try the compound CCN1CCCC1CN(Cc1ccon1)CC1CCN(CCOC)CC1 (configuration not stated)
-9.79
